target: sigma-1 receptor (guinea pig brain) (Cavia porcellus); construct: from tissue; host or cells: guinea pig brain; test: Antagonism of haloperidol binding to guinea pig sigma-1 receptors; conditions: sigma-1, guinea pig brain; test concentration not given
endpoint label: % Inhibition

[in] Please look up its % Inhibition: `O=C1CCC2(CCN(C(=O)N3CCOCC3)CC2)Nc2ccccc21`
[out] <50%

[in] Could you share which % Inhibition value was measured for `CCN(CC)C(=O)N1CCC2(CCC(=O)c3ccccc3N2)CC1` ?
[out] <50%

[in] Give its % Inhibition value. Item: `O=C1CCC2(CCN(Cc3ncc[nH]3)CC2)Nc2ccccc21`
[out] >50%

[in] If you can, please state the reported % Inhibition value of `O=C1CCC2(CCN(CCC3CCCCC3)CC2)Nc2ccccc21` .
[out] >50%

[in] Field request: % Inhibition | item: `O=C1CCC2(CCN(CCc3ccccc3)CC2)Nc2ccccc21`
[out] >50%

[in] Which % Inhibition reading was recorded for the compound O=C1CCC2(CCN(CC3CO3)CC2)Nc2ccccc21 (stereo not drawn) ?
[out] >50%

[in] Consider the compound shown here: `N#Cc1ccc(CN2CCC3(CCC(=O)c4ccccc4N3)CC2)cc1` What is its recorded % Inhibition?
[out] >50%

[in] Look up % Inhibition: `O=C1CCC2(CCN(S(=O)(=O)c3ccccc3)CC2)Nc2ccccc21`
[out] <50%

[in] Which % Inhibition value is on record for `O=C1CCC2(CCN(C(=O)c3ccc4ccccc4c3)CC2)Nc2ccccc21` ?
[out] <50%

----------
system: DNA Synthesis; assay: Safety Assessment: DNA Synthesis
endpoint label: DNA Synthesis

[in] # DNA Synthesis lookup, item `O=C1CCC2(CCN(Cc3nc4ccccc4[nH]3)CC2)Nc2ccccc21`
[out] 29 % inhibition

[in] Name the recorded DNA Synthesis for `O[C@H]1CCC2(CCN(Cc3ccc(F)cc3)CC2)Nc2ccccc21` .
[out] <10 % inhibition

[in] For `O=C1CCC2(CCN(Cc3ccc(F)cc3)CC2)Nc2ccccc21` , what is its reported DNA Synthesis?
[out] <10 % inhibition

[in] So what's the measured DNA Synthesis for this one? OC1CCC2(CCN(Cc3ccc(F)cc3)CC2)Nc2ccccc21 (racemic)
[out] <10 % inhibition

[in] # lookup: DNA Synthesis of `O[C@@H]1CCC2(CCN(Cc3ccc(F)cc3)CC2)Nc2ccccc21`
[out] <10 % inhibition

[in] Quick one: DNA Synthesis of `O=C1CCC2(CCNCC2)Nc2ccccc21` ?
[out] <10 % inhibition

----------
biological target: guinea pig sigma receptor (Cavia porcellus); construct: having guinea pig as a receptor source; from tissue; host or cells: guinea pig; test: Guinea pig sigma receptor assay; assay type: binding
Sequence (Q60492 whole entry): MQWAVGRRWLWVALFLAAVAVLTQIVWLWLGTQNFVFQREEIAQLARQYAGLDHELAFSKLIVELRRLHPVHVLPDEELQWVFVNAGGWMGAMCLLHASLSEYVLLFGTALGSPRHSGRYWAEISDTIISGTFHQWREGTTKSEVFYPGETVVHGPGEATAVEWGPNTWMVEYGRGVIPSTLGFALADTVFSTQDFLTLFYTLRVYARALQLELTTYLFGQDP
pIC50: −log10 of the molar value.
endpoint label: pIC50

[in] Consider the molecule `C=C1c2ccccc2NC12CCN(Cc1ccc(F)cc1)CC2` and give its measured pIC50.
[out] > 7.00

----------
Assay: Pharmacokinetics in a single rat
Format: in vivo
Conditions: plasma, iv; rat, 5 mg/kg i.v., 10% hydroxypropyl-p-cyclodextrin; read-out: AUC0-4h
Procedure: Pharmacokinetic properties of the compounds were evaluated in a single rat after dosing 4 and 5 mg/kg, respectively. The dose was well tolerated by the animal. The data below is based on a 270 g rat. […] The resulting supernatant was analysed by HPLC using a sample volume of 0.05 mL alongside standard solutions prepared by “spiking” known amounts of the compounds into the control plasma. […]
endpoint label: AUC(0-t) (ng·h/mL)
Write the value in ng·h/mL as a bare number.

[in] # AUC(0-t) lookup, item OC1CCC2(CCN(Cc3ccc(F)cc3)CC2)Nc2ccccc21 (racemic)
[out] 700

----------
target: sigma-1 receptor (guinea pig brain) (Cavia porcellus, UniProt Q60492); construct: from tissue; host or cells: guinea pig brain; assay: Antagonism of haloperidol binding to guinea pig sigma-1 receptors; settings: sigma-1, guinea pig brain; test concentration not given
Exercise: state measured % Inhibition for each of the compounds provided.

[in] Recorded % Inhibition of CC(=O)N1CCC2(CCC(=O)c3ccccc3N2)CC1 [Compound 10] , please.
[out] >50%

[in] Please look up its % Inhibition: CC(C)CCN1CCC2(CCC(=O)c3ccccc3N2)CC1 [Compound 29]
[out] >50%

[in] Which % Inhibition value is on record for C=C(C)CCN1CCC2(CCC(=O)c3ccccc3N2)CC1 [Compound 23] ?
[out] >50%

[in] Sample O=C1CCC2(CCNCC2)Nc2ccccc21 [Compound 11] — what was its % Inhibition?
[out] <50%

[in] Item O=C1CCC2(CCN(Cc3ccc(OC(F)(F)F)cc3)CC2)Nc2ccccc21 [Compound 18] has what recorded % Inhibition?
[out] >50%

[in] // lookup % Inhibition for O=C1CCC2(CCN(Cc3ccc(F)cc3)CC2)Nc2ccccc21 [Compound 31]
[out] >50%

[in] % Inhibition lookup needed for OC1CCC2(CCN(Cc3ccc(F)cc3)CC2)Nc2ccccc21 (racemic) [Compound 32] , thanks.
[out] >50%

[in] // lookup % Inhibition for C=CCN1CCC2(CCC(=O)c3ccccc3N2)CC1 [Compound 26]
[out] >50%

[in] % Inhibition for CC(C)(C)c1ccc(C(=O)N2CCC3(CCC(=O)c4ccccc4N3)CC2)cc1 [Compound 14] ?
[out] <50%

----------
I'd be grateful if you could share measured % Inhibition for these entries.
biological target: sigma-1 receptor (guinea pig brain) (Cavia porcellus, UniProt Q60492); construct: from tissue; host or cells: guinea pig brain; experiment: Antagonism of haloperidol binding to guinea pig sigma-1 receptors; settings: sigma-1, guinea pig brain; test concentration not given

[in] What value of % Inhibition has been reported for the following compound? CC(C)(C)CCN1CCC2(CCC(=O)c3ccccc3N2)CC1 [Compound 27]
[out] >50%

[in] Look at this compound and give its reported % Inhibition. COC(=O)c1ccc(CN2CCC3(CCC(=O)c4ccccc4N3)CC2)cc1 [Compound 22]
[out] >50%

[in] Sample O=C1C=CC2(CCN(Cc3ccc(F)cc3)CC2)Nc2ccccc21 [Compound 34] — what was its % Inhibition?
[out] >50%

[in] Please report the recorded % Inhibition for O=C1CCC2(CCN(Cc3nc4ccccc4[nH]3)CC2)Nc2ccccc21 [Compound 21] .
[out] >50%

[in] Requested field: % Inhibition. Item: O=C1CCC2(CCN(C(=O)c3ccc(Cl)c(Cl)c3)CC2)Nc2ccccc21 [Compound 12]
[out] <50%

----------
assay: physchem
endpoint label: solubility
# answer = value followed by unit

[in] Item `O=C1CCC2(CCNCC2)Nc2ccccc21` has what recorded solubility?
[out] 202 µM

----------
assay: Pharmacokinetics in a single rat; format: in vivo; settings: plasma, iv; rat (270 g), 5 mg/kg i.v.
endpoint label: clearance

[in] Quick one: clearance for OC1CCC2(CCN(Cc3ccc(F)cc3)CC2)Nc2ccccc21 (racemic) ?
[out] 31.7 mL/min

----------
test: Solubility
Assign solubility to each entry below.
Just the number please, in µM, no unit attached.

[in] Data request, read-out solubility, for OC1CCC2(CCN(Cc3ccc(F)cc3)CC2)Nc2ccccc21 (racemic) [Compound 32]
[out] 83

[in] Returns the measured solubility for the input compound. Input: O=C1CCC2(CCN(Cc3ccc(F)cc3)CC2)Nc2ccccc21 [Compound 31]
[out] 192

[in] For the compound shown here, O[C@@H]1CCC2(CCN(Cc3ccc(F)cc3)CC2)Nc2ccccc21 [Compound 50] , give the reported solubility.
[out] 205

[in] Need solubility of O=C1CCC2(CCN(Cc3nc4ccccc4[nH]3)CC2)Nc2ccccc21 [Compound 21] , thanks.
[out] 210

[in] Form field: reported solubility of O[C@H]1CCC2(CCN(Cc3ccc(F)cc3)CC2)Nc2ccccc21 [Compound 49]
[out] 181

----------
test: Log D7.5
Answer each item with its documented Log D7.5.
The answer should be a number; do not append a unit.

[in] # query: Log D7.5 of entry `O[C@H]1CCC2(CCN(Cc3ccc(F)cc3)CC2)Nc2ccccc21`
[out] 1.59

[in] Fill in: Log D7.5 of `O[C@@H]1CCC2(CCN(Cc3ccc(F)cc3)CC2)Nc2ccccc21` is ___
[out] 1.62

[in] Given `O=C1CCC2(CCN(Cc3ccc(F)cc3)CC2)Nc2ccccc21` , state its recorded Log D7.5.
[out] 2.19

[in] Quick one: Log D7.5 for OC1CCC2(CCN(Cc3ccc(F)cc3)CC2)Nc2ccccc21 (racemic) ?
[out] 3.7

[in] Look at this compound and give its reported Log D7.5. `O=C1CCC2(CCN(Cc3nc4ccccc4[nH]3)CC2)Nc2ccccc21`
[out] 1.22

----------
tested on: Protein Synthesis; assay: Safety Assessment: Protein Synthesis
Task for the reader: assign each of the following compounds its reported Protein Synthesis.
Respond with the bare value in % inhibition.

[in] Entry under review: `O=C1CCC2(CCNCC2)Nc2ccccc21` . Reported Protein Synthesis?
[out] 42

[in] Record request: Protein Synthesis value, item `O=C1CCC2(CCN(Cc3ccc(F)cc3)CC2)Nc2ccccc21`
[out] 65

[in] Which measured Protein Synthesis value corresponds to `O=C1CCC2(CCN(Cc3nc4ccccc4[nH]3)CC2)Nc2ccccc21` ?
[out] 14

Attribution: patent US6476019B1
